- TARGET OR TEST SYSTEM: SIRT1 (Homo sapiens)
- Sequence (Q96EB6 whole entry): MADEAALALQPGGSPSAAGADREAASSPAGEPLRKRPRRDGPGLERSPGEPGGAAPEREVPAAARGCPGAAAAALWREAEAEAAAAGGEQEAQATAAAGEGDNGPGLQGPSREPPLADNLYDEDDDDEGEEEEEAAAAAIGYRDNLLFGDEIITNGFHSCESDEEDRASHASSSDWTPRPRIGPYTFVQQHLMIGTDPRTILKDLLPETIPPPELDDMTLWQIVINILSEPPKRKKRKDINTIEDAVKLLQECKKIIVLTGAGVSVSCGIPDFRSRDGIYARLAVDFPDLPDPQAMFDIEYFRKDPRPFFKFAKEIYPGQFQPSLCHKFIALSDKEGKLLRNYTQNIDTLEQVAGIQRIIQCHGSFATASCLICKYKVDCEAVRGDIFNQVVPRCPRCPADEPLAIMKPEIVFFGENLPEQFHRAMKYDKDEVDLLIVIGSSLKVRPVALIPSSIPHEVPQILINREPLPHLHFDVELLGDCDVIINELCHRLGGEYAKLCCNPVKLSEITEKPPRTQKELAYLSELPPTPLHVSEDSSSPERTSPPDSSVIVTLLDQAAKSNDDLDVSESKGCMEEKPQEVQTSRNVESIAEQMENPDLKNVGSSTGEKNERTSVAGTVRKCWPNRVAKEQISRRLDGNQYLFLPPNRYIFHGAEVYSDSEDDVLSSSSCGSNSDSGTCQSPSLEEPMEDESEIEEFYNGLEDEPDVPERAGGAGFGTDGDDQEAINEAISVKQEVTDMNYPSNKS
- TEST NAME: Mass spectrometry based assay to identify modulators of SIRT1 activity (deacetylation of p53-based acetylated peptide substrate)
- Format: biochemical
- RUN PARAMETERS: 25 min, SIRT1 activation, read-out: % FOLD ACT. (percent maximum fold activation)
Measured Emax, listed per entry for reference.

# count of solved cases: 5
INSERT INTO results (molecule, target_or_test_system, observed_value) VALUES
  ('O=C(Nc1ccnc(N2CCC2)c1)N1CCCOc2ccc(-c3cccc(F)c3)nc21', 'SIRT1 (Homo sapiens)', '> 200%'),
  ('Cc1cc(NC(=O)N2CCOc3c(N4CCCC4)nc(-c4cccc(F)c4)nc32)cc(C)n1', 'SIRT1 (Homo sapiens)', '≤ 200%'),
  ('CC1(C)CN(C(=O)Nc2cncc(F)c2)c2nc(-c3cccc(N4CC[C@H](F)C4)c3)ccc2O1', 'SIRT1 (Homo sapiens)', '> 200%'),
  ('Cc1csc(NC(=O)N2CCC(C)(C)C(=O)c3ccc(-c4cccc(Cl)c4)nc32)n1', 'SIRT1 (Homo sapiens)', '≤ 200%'),
  ('O=C(Nc1cncc(OCC(O)CO)n1)N1CCOc2ccc(-c3cccc(C(F)(F)F)c3)nc21 (centres unmarked)', 'SIRT1 (Homo sapiens)', '> 200%');

q: // lookup Emax for O=C(Nc1ccc(CN2CCOCC2)nc1)N1CCOc2ccc(-c3cccc(C(F)(F)F)c3)nc21
a: > 200%

q: # lookup: Emax of O=C(Nc1cccc(OC[C@H](O)CO)n1)N1CCOc2ccc(-c3cccc(C(F)(F)F)c3)nc21
a: > 200%

q: Endpoint output: Emax of O=C(Nc1cccc(OC[C@H](O)CO)n1)N1CCCC(F)(F)c2ccc(-c3cccc(Cl)c3)nc21 . Value?
a: > 200%
